The reported measurements were obtained from patent EP0641797A1.

Consider the following molecules; for each one, report its MIC.
Tested on: M. morganii IFO 3848
Assay: MIC on standard strains, standard method of Japan Society of Chemotherapy
Type: cell-based
Conditions: Morganella morganii, IFO3848
Note: unit µg/mL is implicit; provide only the numeric part.

The reported value for CO[C@@]1(NC(=O)CSC(F)F)C(=O)N2C(C(=O)O)=C(CSc3nnnn3CCO)CO[C@@H]21 [FMOX, flomoxef, reference compound] in terms of MIC is 0.39

The reported value for Nc1nc(/C(=N/O)C(=O)N[C@@H]2C(=O)N3C(C(=O)[O-])=C(C[n+]4ccc(-c5cncs5)cc4)CS[C@H]23)cs1 [Ex. 22] in terms of MIC is 0.025

The reported value for NC(=O)Cc1ccc[n+](CC2=C(C(=O)[O-])N3C(=O)[C@@H](NC(=O)/C(=N\O)c4nsc(N)n4)[C@H]3SC2)c1 [Ex. 1] in terms of MIC is 1.56

The reported value for Nc1nc(/C(=N/O)C(=O)N[C@@H]2C(=O)N3C(C(=O)[O-])=C(C[n+]4ccc(-c5nccs5)cc4)CS[C@H]23)cs1 [Ex. 21] in terms of MIC is 0.05

The reported value for Nc1nnc(-c2cc[n+](CC3=C(C(=O)[O-])N4C(=O)[C@@H](NC(=O)/C(=N\O)c5csc(N)n5)[C@H]4SC3)cc2)o1 [Ex. 15] in terms of MIC is 0.1

The reported value for Nc1nc(-c2cc[n+](CC3=C(C(=O)[O-])N4C(=O)[C@@H](NC(=O)/C(=N\O)c5csc(N)n5)[C@H]4SC3)cc2)no1 [Ex. 13] in terms of MIC is 0.1

The reported value for NC(=NO)c1cc[n+](CC2=C(C(=O)[O-])N3C(=O)[C@@H](NC(=O)/C(=N\O)c4csc(N)n4)[C@H]3SC2)cc1 [Ex. 20] in terms of MIC is 0.1

The reported value for CN(C)CCn1nnnc1SCC1=C(C(=O)O)N2C(=O)[C@@H](NC(=O)Cc3csc(N)n3)[C@H]2SC1 [CTM, cefotiam, reference compound] in terms of MIC is 0.2

The reported value for Nc1nc(/C(=N/O)C(=O)N[C@@H]2C(=O)N3C(C(=O)[O-])=C(C[n+]4ccc(-c5ncno5)cc4)CS[C@H]23)ns1 [Ex. 6] in terms of MIC is 0.39

The reported value for Nc1nc(/C(=N/O)C(=O)N[C@@H]2C(=O)N3C(C(=O)[O-])=C(C[n+]4ccc(-c5ncon5)cc4)CS[C@H]23)cs1 [Ex. 17] in terms of MIC is 0.2

The reported value for NC(=O)Nc1ccc[n+](CC2=C(C(=O)[O-])N3C(=O)[C@@H](NC(=O)/C(=N\O)c4nsc(N)n4)[C@H]3SC2)c1 [Ex. 2] in terms of MIC is 0.78

The reported value for Nc1nc(/C(=N/O)C(=O)N[C@@H]2C(=O)N3C(C(=O)[O-])=C(C[n+]4cccc(-c5cscn5)c4)CS[C@H]23)cs1 [Ex. 9] in terms of MIC is 0.1

The reported value for Nc1nc(/C(=N/O)C(=O)N[C@@H]2C(=O)N3C(C(=O)[O-])=C(C[n+]4ccc(-c5ncno5)cc4)CS[C@H]23)cs1 [Ex. 8] in terms of MIC is 0.05

The reported value for Nc1nc(/C(=N/O)C(=O)N[C@@H]2C(=O)N3C(C(=O)[O-])=C(C[n+]4ccc(-c5nnco5)cc4)CS[C@H]23)cs1 [Ex. 18] in terms of MIC is 0.05

The reported value for Nc1nc(-c2ccc[n+](CC3=C(C(=O)[O-])N4C(=O)[C@@H](NC(=O)/C(=N\O)c5csc(N)n5)[C@H]4SC3)c2)no1 [Ex. 14] in terms of MIC is 0.2

----------
Tested on: C. freundii ATCC 8090
Assay: MIC on standard strains, standard method of Japan Society of Chemotherapy
Format: cell-based
Details: Citrobacter freundii, ATCC8090, C. freundii ATCC 8090; read-out: MIC
Consider the following compounds; for each one, report its log10 MIC.
Kindly note that the scale is log10 and the underlying MIC is in mg/L.

The reported value for Nc1nc(/C(=N/O)C(=O)N[C@@H]2C(=O)N3C(C(=O)[O-])=C(C[n+]4ccc(-c5cncs5)cc4)CS[C@H]23)cs1 in terms of log10 MIC is -1.00

The reported value for Nc1nc(/C(=N/O)C(=O)N[C@@H]2C(=O)N3C(C(=O)[O-])=C(C[n+]4ccc(-c5nnco5)cc4)CS[C@H]23)cs1 in terms of log10 MIC is -0.41

The reported value for Nc1nc(/C(=N/O)C(=O)N[C@@H]2C(=O)N3C(C(=O)[O-])=C(C[n+]4ccc(-c5nsc(N)n5)cc4)CS[C@H]23)cs1 in terms of log10 MIC is -0.70

The reported value for NC(=O)Nc1ccc[n+](CC2=C(C(=O)[O-])N3C(=O)[C@@H](NC(=O)/C(=N\O)c4nsc(N)n4)[C@H]3SC2)c1 in terms of log10 MIC is -0.11

The reported value for Nc1nc(-c2cc[n+](CC3=C(C(=O)[O-])N4C(=O)[C@@H](NC(=O)/C(=N\O)c5csc(N)n5)[C@H]4SC3)cc2)no1 in terms of log10 MIC is -0.70

The reported value for Nc1nc(/C(=N/O)C(=O)N[C@@H]2C(=O)N3C(C(=O)[O-])=C(C[n+]4cccc(-c5cscn5)c4)CS[C@H]23)cs1 in terms of log10 MIC is -0.70

The reported value for Nc1nc(-c2ccc[n+](CC3=C(C(=O)[O-])N4C(=O)[C@@H](NC(=O)/C(=N\O)c5csc(N)n5)[C@H]4SC3)c2)no1 in terms of log10 MIC is -0.70

The reported value for Nc1nc(-c2cc[n+](CC3=C(C(=O)[O-])N4C(=O)[C@@H](NC(=O)/C(=N\O)c5csc(N)n5)[C@H]4SC3)cc2)n[nH]1 in terms of log10 MIC is -0.70

The reported value for Nc1nc(/C(=N/O)C(=O)N[C@@H]2C(=O)N3C(C(=O)[O-])=C(C[n+]4cccc(-c5ncno5)c4)CS[C@H]23)ns1 in terms of log10 MIC is 0.80

The reported value for Nc1nc(/C(=N/O)C(=O)N[C@@H]2C(=O)N3C(C(=O)[O-])=C(C[n+]4ccc(-c5ncno5)cc4)CS[C@H]23)cs1 in terms of log10 MIC is -0.70

The reported value for Nc1nc(/C(=N/O)C(=O)N[C@@H]2C(=O)N3C(C(=O)[O-])=C(C[n+]4cccc(-c5nsc(N)n5)c4)CS[C@H]23)cs1 in terms of log10 MIC is -0.41

The reported value for CO[C@@]1(NC(=O)CSC(F)F)C(=O)N2C(C(=O)O)=C(CSc3nnnn3CCO)CO[C@@H]21 [FMOX, flomoxef, reference compound] in terms of log10 MIC is -0.41

The reported value for NC(=O)Cc1ccc[n+](CC2=C(C(=O)[O-])N3C(=O)[C@@H](NC(=O)/C(=N\O)c4nsc(N)n4)[C@H]3SC2)c1 in terms of log10 MIC is 0.19

----------
Consider the following compounds; for each one, report its MIC.
Test system: S. marcescens IAM 1184
Assay: MIC on standard strains, standard method of Japan Society of Chemotherapy
Type: cell-based
Details: Serratia marcescens, IAM1184, S. marcescens IAM 1184; read-out: MIC
Note: unit mg/L is implicit; provide only the numeric part.

The reported value for Nc1nc(/C(=N/O)C(=O)N[C@@H]2C(=O)N3C(C(=O)[O-])=C(C[n+]4ccc(-c5nccs5)cc4)CS[C@H]23)cs1 [Ex. 21] in terms of MIC is 0.1

The reported value for Nc1nc(/C(=N/O)C(=O)N[C@@H]2C(=O)N3C(C(=O)[O-])=C(C[n+]4ccc(-c5ncon5)cc4)CS[C@H]23)cs1 [Ex. 17] in terms of MIC is 0.39

The reported value for Nc1nnc(-c2cc[n+](CC3=C(C(=O)[O-])N4C(=O)[C@@H](NC(=O)/C(=N\O)c5csc(N)n5)[C@H]4SC3)cc2)o1 [Ex. 15] in terms of MIC is 0.2

The reported value for Nc1nc(/C(=N/O)C(=O)N[C@@H]2C(=O)N3C(C(=O)[O-])=C(C[n+]4ccc(-c5nsc(N)n5)cc4)CS[C@H]23)cs1 [Ex. 11] in terms of MIC is 0.39

The reported value for Nc1nc(/C(=N/O)C(=O)N[C@@H]2C(=O)N3C(C(=O)[O-])=C(C[n+]4ccc(-c5cncs5)cc4)CS[C@H]23)cs1 [Ex. 22] in terms of MIC is 0.1

The reported value for Nc1nc(/C(=N/O)C(=O)N[C@@H]2C(=O)N3C(C(=O)[O-])=C(C[n+]4ccc(-c5ncno5)cc4)CS[C@H]23)cs1 [Ex. 8] in terms of MIC is 0.39
